These entries and their values trace back to paper PMC11822212.

Tested on: MCC26 cells (VN-MCC)
Assay: qHTS cell viability (CellTiter-Glo, 72 h; primary and follow-up small molecule screen)
Assay type: cell-based, human
Conditions: NPC library; qHTS dose-response AUC, MCC26
Counter-ions that a name gives are not always drawn.
Would you kindly list MCC26_AUC for each of these molecules?
Give only the figure.

Query block: Requested read-out: MCC26_AUC. Entry: COc1cc(/C=C2\CCC/C(=C\c3ccc(O)c(OC)c3)C2=O)ccc1O
Result block: 456.812

Query block: Requested read-out: MCC26_AUC. Entry: CCCCCC(=O)O[C@]1(C(C)=O)CC[C@H]2[C@@H]3CCC4=CC(=O)CC[C@]4(C)[C@H]3CC[C@@]21C [Hydroxyprogesterone caproate]
Result block: 432.583

Query block: Requested read-out: MCC26_AUC. Entry: CCCCC1C(=O)N(c2ccccc2)N(c2ccc(O)cc2)C1=O (stereo not drawn)
Result block: 450.163

Query block: Requested read-out: MCC26_AUC. Entry: CC[C@@]1(O)C(=O)OCc2c1cc1n(c2=O)Cc2cc3c(CN(C)C)c(O)ccc3nc2-1 [Topotecan HCl]
Result block: 267.734

Query block: Requested read-out: MCC26_AUC. Entry: Cc1nc2ccccn2c(=O)c1CCN1CCC(C(=O)c2ccc(F)cc2)CC1
Result block: 401.594

Query block: Requested read-out: MCC26_AUC. Entry: c1ccc(CC2=NCCN2)cc1 [Tolazoline hydrochloride]
Result block: 395.361

Query block: Requested read-out: MCC26_AUC. Entry: CCCCC(CC)CNC(=N)NC(=N)NCCCCCCNC(=N)NC(=N)NCC(CC)CCCC (stereo not drawn) [Alexidine dihydrochloride]
Result block: 401.146

Query block: Requested read-out: MCC26_AUC. Entry: Cc1cc(OCCOCC[N+](C)(C)Cc2ccccc2)ccc1C(C)(C)CC(C)(C)C.[Cl-] [Methylbenzethonium chloride]
Result block: 455.487

Query block: Requested read-out: MCC26_AUC. Entry: N=C(N)NN=C(/C=C/c1ccc([N+](=O)[O-])o1)/C=C/c1ccc([N+](=O)[O-])o1
Result block: 411.446

Query block: Requested read-out: MCC26_AUC. Entry: CNS(=O)(=O)CCc1ccc2[nH]cc(C3CCN(C)CC3)c2c1 [Naratriptan hydrochloride]
Result block: 402.936

Query block: Requested read-out: MCC26_AUC. Entry: N=C(N)NC(=O)c1nc(Cl)c(N)nc1N [Amiloride]
Result block: 436.049

Query block: Requested read-out: MCC26_AUC. Entry: CNCc1ccccc1.Cl [N-Methylbenzylamine hydrochloride]
Result block: 480.435

Query block: Requested read-out: MCC26_AUC. Entry: O=C1OC(CCN2CCCCC2)OC1(c1ccccc1)c1ccccc1 (stereo not drawn) [Pipoxolan hydrochloride]
Result block: 460.749

Query block: Requested read-out: MCC26_AUC. Entry: Cl.Cl.Fc1ccc(C(OCCN2CCN(CCCc3ccccc3)CC2)c2ccc(F)cc2)cc1 [GBR 12909 dihydrochloride]
Result block: 404.643

Query block: Requested read-out: MCC26_AUC. Entry: Cc1ccsc1C(=CCCN1CCC[C@@H](C(=O)O)C1)c1sccc1C [Tiagabine hydrochloride]
Result block: 535.626
